These measurements were taken from the supplement of paper PMC11208160.

Test: recombinant barcode read abundance after kanamycin selection (control-corrected) (log10(CPM+1)); higher = more efficient recombination; sequences stand for … in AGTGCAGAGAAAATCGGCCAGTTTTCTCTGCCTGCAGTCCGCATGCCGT…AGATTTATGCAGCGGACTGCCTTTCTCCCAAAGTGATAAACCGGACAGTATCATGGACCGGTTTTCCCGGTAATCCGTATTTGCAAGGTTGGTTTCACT; site = the 11-nt target;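 note: IS621 recombinase and bridge RNA in Escherichia coli cells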
Below is a list of entries, each paired with its recorded recombinant barcode read abundance (log10) value.
Enter a number only.

Examples with their reported recombinant barcode read abundance (log10) follow.
BIOPOLYMER_SEQUENCE	DATA_VALUE
CGGAATCCTTGGGTTCTAACCTGTTGCGT (site CGGAATCCTAA)	0.159
GAAAAGGCTTGGGTTCTAACCTGTTGCCT (site GAAATGGCTAG)	0.206
TTGATAGCTTGGGTTCTAACCTGTTGCTA (site TTGATAGCTTA)	0.203
TAGTATCCTTGGGTTCTAACCTGTTGCGT (site TAGTCTCCTAC)	0.0759

Turning to the following sequence.
Query block: Consider the sequence shown here: GTCCCTACTTGGGTTCTAACCTGTTGCCG (site GTCGCTACTCG) What is its recorded recombinant barcode read abundance (log10)?
Result block: 0
